- ASSAY METHOD TEXT: Half life in Sprague-Dawley rat at 2 mg/kg, iv by LC/MS/MS analysis
- Format: ADME, organism-based
- Design: dose 2 mg/kg, route intravenous
- ASSAY CONTEXT: in vivo
The following molecules are shown together with reported half-life values.
Give just the number in h; leave the unit off.

COC[C@H](C1CC1)n1cc(Cl)nc(Nc2cc(C)c(OC)nc2C)c1=O : 19
COC[C@@H](C1CC1)n1cc(Cl)nc(Nc2cc(C)c(OC(F)F)nc2C)c1=O : 16
CC[C@H](C1CC1)n1cc(C#N)nc(Nc2cc(C)c(OC)nc2C)c1=O : 9
COC[C@H](C1CC1)n1cc(C#N)nc(Nc2cc(C)c(OC(F)F)nc2C)c1=O : 9.3
Cc1cc(Nc2nc(C#N)cn([C@H](C)C3CC3)c2=O)c(C)nc1OC(F)F : 7.2

Consider the record given below.
half-life measured on `COC[C@H](C1CC1)n1cc(Cl)nc(Nc2cc(C)c(OC(F)F)nc2C)c1=O` = 9.2

###

- ASSAY METHOD TEXT: Metabolic stability in rat liver microsomes assessed as compound remaining at 3 uM after 10 mins by HPLC/UV/MS analysis
- Type: ADME, Microsome
- ASSAY CONTEXT: read-out: Stability
RECORDED METRIC: remaining at 10 min, 3 µM

Completed entries (count: 5):
Cc1cc(Nc2nc(Cl)cn([C@H](C)C3CC3)c2=O)c(C)nc1OC(F)F : 86%
COC[C@H](C1CC1)n1cc(C#N)nc(Nc2cc(C)c(OC)nc2C)c1=O : 51%
COc1nc(C)c(Nc2nc(Cl)cn([C@H](C)C3CC3)c2=O)cc1C : 55%
Cc1cc(Nc2nc(C#N)cn([C@H](C)C3CC3)c2=O)c(C)nc1OC(F)F : 89%
COC[C@@H](C)n1cc(Cl)nc(Nc2cc(C)c(OC(F)F)nc2C)c1=O : 66%

// field: remaining at 10 min, 3 µM; key: `COC[C@@H](C)n1cc(Cl)nc(Nc2cc(C)c(OC)nc2C)c1=O` ; value = 8%

###

The reader will find reported Activity values listed item by item below.
- Tested on: Liver microsomes
- ASSAY METHOD TEXT: Metabolic stability in NADPH-fortified rat liver microsomes assessed as GSH adduct formation at 10 uM after 30 mins by HPLC/UV/MS analysis
- Type: ADME, Microsome
- ASSAY CONTEXT: 0.5 h
Output spec: scalar in %, unitless text.

Cc1cc(Nc2nc(C#N)cn([C@H](C)C3CC3)c2=O)c(C)nc1OC(F)F : 8
COC[C@H](C1CC1)n1cc(C#N)nc(Nc2cc(C)c(OC(F)F)nc2C)c1=O : 3
COC[C@H](C1CC1)n1cc(Cl)nc(Nc2cc(C)c(OC(F)F)nc2C)c1=O : 3

Please fill in: Activity reported for `C[C@@H](C1CC1)n1cc(Cl)nc(Nc2c(Cl)cc(OC(F)F)cc2Cl)c1=O` = 5

###

As shown below, each of these compounds has a reported Vd value.
- ASSAY METHOD TEXT: Volume of distribution at steady state in Sprague-Dawley rat at 2 mg/kg, iv after 0.17 to 24 hrs by LC/MS/MS analysis
- Type: ADME, organism-based
- Set-up: dose 2 mg/kg, route intravenous
- ASSAY CONTEXT: in vivo, read-out: Vdss
All answers are understood in L/kg, so give the number only.

Recorded results for 2 compounds are shown here.
COC[C@@H](C1CC1)n1cc(Cl)nc(Nc2cc(C)c(OC(F)F)nc2C)c1=O : 42
CC[C@H](C1CC1)n1cc(C#N)nc(Nc2cc(C)c(OC)nc2C)c1=O : 11

Entry `COC[C@H](C1CC1)n1cc(C#N)nc(Nc2cc(C)c(OC(F)F)nc2C)c1=O` , Vd reported as 11

Per the records, this compound ( `COC[C@H](C1CC1)n1cc(Cl)nc(Nc2cc(C)c(OC(F)F)nc2C)c1=O` ) has Vd equal to 15

Lab note: `COC[C@H](C1CC1)n1cc(Cl)nc(Nc2cc(C)c(OC)nc2C)c1=O` gave Vd of 19

The compound `Cc1cc(Nc2nc(C#N)cn([C@H](C)C3CC3)c2=O)c(C)nc1OC(F)F` showed Vd equal to 11

###

- ASSAY METHOD TEXT: Clearance in Sprague-Dawley rat at 2 mg/kg, iv after 0.17 to 24 hrs by LC/MS/MS analysis
- Format: ADME, organism-based
- Parameters: dose 2 mg/kg, route intravenous
- ASSAY CONTEXT: in vivo
Lab note - cut at 40 mL/min/kg for clearance: Criterion met if strictly below, Criterion not met if not.

Some solved cases for reference:
Cc1cc(Nc2nc(C#N)cn([C@H](C)C3CC3)c2=O)c(C)nc1OC(F)F : Criterion met
COC[C@H](C1CC1)n1cc(C#N)nc(Nc2cc(C)c(OC(F)F)nc2C)c1=O : Criterion met
CC[C@H](C1CC1)n1cc(C#N)nc(Nc2cc(C)c(OC)nc2C)c1=O : Criterion not met
COC[C@@H](C1CC1)n1cc(Cl)nc(Nc2cc(C)c(OC(F)F)nc2C)c1=O : Criterion met
COC[C@H](C1CC1)n1cc(Cl)nc(Nc2cc(C)c(OC(F)F)nc2C)c1=O : Criterion met

Could you please tell me whether clearance recorded for `COC[C@H](C1CC1)n1cc(Cl)nc(Nc2cc(C)c(OC)nc2C)c1=O` is less than 40 mL/min/kg?
Criterion met

###

- ASSAY METHOD TEXT: Metabolic stability in human liver microsomes assessed as compound remaining at 3 uM after 10 mins by HPLC/UV/MS analysis
- Assay type: ADME, Microsome
- ASSAY CONTEXT: read-out: Stability
RECORDED METRIC: remaining at 10 min, 3 µM (%)
Your answer is read as %, so omit the unit and give the number.

COC[C@@H](C1CC1)n1cc(Cl)nc(Nc2cc(C)c(OC)nc2C)c1=O : 40
COC[C@@H](C)n1cc(Cl)nc(Nc2cc(C)c(OC)nc2C)c1=O : 39
COC[C@@H](C1CC1)n1cc(Cl)nc(Nc2cc(C)c(OC(F)F)nc2C)c1=O : 84
COC[C@H](C1CC1)n1cc(C#N)nc(Nc2cc(C)c(OC)nc2C)c1=O : 60

Next compound, please.
compound `CC[C@H](C1CC1)n1cc(C#N)nc(Nc2cc(C)c(OC)nc2C)c1=O` , remaining at 10 min, 3 µM observed: 81

###

- System: Liver microsomes
- ASSAY METHOD TEXT: Metabolic stability in NADPH-fortified human liver microsomes assessed as GSH adduct formation at 10 uM after 30 mins by HPLC/UV/MS analysis
- Type: ADME, Microsome
- ASSAY CONTEXT: 0.5 h
RECORDED METRIC: Activity
Express the reported value numerically, then name its unit.

Examples with their reported Activity follow.
COC[C@H](C1CC1)n1cc(C#N)nc(Nc2cc(C)c(OC(F)F)nc2C)c1=O : 1%
C[C@@H](C1CC1)n1cc(Cl)nc(Nc2c(Cl)cc(OC(F)F)cc2Cl)c1=O : 2%
COC[C@H](C1CC1)n1cc(Cl)nc(Nc2cc(C)c(OC(F)F)nc2C)c1=O : 5%

Field: next compound
Record `Cc1cc(Nc2nc(C#N)cn([C@H](C)C3CC3)c2=O)c(C)nc1OC(F)F` . Reported Activity: 7%

###

We begin with a simple list: items and their reported bioavailability.
- ASSAY METHOD TEXT: Oral bioavailability in Sprague-Dawley rat at 10 mg/kg dosed as aqueous suspension of Labrafil M 1944CS/DMAC/polysorbate 80, 85:10:5 (v/v) after 0.25 to 24 hrs by LC/MS/MS analysis
- Type: ADME, organism-based
- ASSAY CONTEXT: in vivo
Express your answer in %, writing the number without its unit.

Summary for this molecule, `CC[C@H](C1CC1)n1cc(C#N)nc(Nc2cc(C)c(OC)nc2C)c1=O` : bioavailability is 33

Entry under test: `COC[C@@H](C1CC1)n1cc(Cl)nc(Nc2cc(C)c(OC(F)F)nc2C)c1=O` . Its bioavailability was 48

// sample `COC[C@H](C1CC1)n1cc(Cl)nc(Nc2cc(C)c(OC(F)F)nc2C)c1=O` , its bioavailability was 86

get_value(item= `COC[C@H](C1CC1)n1cc(Cl)nc(Nc2cc(C)c(OC)nc2C)c1=O` , readout=bioavailability) returns 26

The recorded bioavailability for `COC[C@H](C1CC1)n1cc(C#N)nc(Nc2cc(C)c(OC(F)F)nc2C)c1=O` is 66

# bioavailability (molecule: `Cc1cc(Nc2nc(C#N)cn([C@H](C)C3CC3)c2=O)c(C)nc1OC(F)F` ) is 82

###

Overview of reported Activity across a group of molecules:
- System: Liver microsomes
- ASSAY METHOD TEXT: Metabolic stability in NADPH-fortified human liver microsomes assessed as pyrazinone oxidation metabolite formation at 10 uM after 30 mins by HPLC/UV/MS analysis
- Type: ADME, Microsome
- ASSAY CONTEXT: 0.5 h
Report the value in % with no unit label.

C[C@@H](C1CC1)n1cc(Cl)nc(Nc2c(Cl)cc(OC(F)F)cc2Cl)c1=O : 12

For this molecule ( `COC[C@H](C1CC1)n1cc(Cl)nc(Nc2cc(C)c(OC(F)F)nc2C)c1=O` ), measured Activity is 1
